Where these numbers come from: patent US20200057058A1

# target-or-system: monomeric streptavidin variant mSA2
# test-name: fluorescent binding assay, labeled mSA2; signal three standard deviations above blank
property: limit of detection (LOD) (nM)
Write the number in nM without appending the unit.

Recorded limit of detection (LOD), per entry:
[[record]]
binder = "1xSP25k thin film (1x rcSso7d.SA-PNIPAM conjugate, 25 kDa PNIPAM) (designed binder, maleimide end-functionalized PNIPAM (25 kDa) on the N-terminal Cys; film lightly crosslinked with glutaraldehyde) MGSIHHHHHHSSGLVPRGSHMCATVKFTYQGEEKQVDISKIKIVARDGQYIDFKYDEGGGAYGYGWVSEKDAPKELLQMLEKQ"
property = "limit of detection (LOD)"
units_symbol = "nM"
experimental_result = 290

[[record]]
binder = "2xSP25k thin film (2x rcSso7d.SA-PNIPAM conjugate, 25 kDa PNIPAM) (designed binder, maleimide end-functionalized PNIPAM (25 kDa) on the N-terminal Cys; film lightly crosslinked with glutaraldehyde, Two rcSso7d.SA repeats joined by a (G4S)2 linker in one chain) MGSSHHHHHHSSGLVPRGSHMCATVKFTYQGEEKQVDISKIKIVARDGQYIDFKYDEGGGAYGYGWVSEKDAPKELLQMLEKQGGGGSGGGGSMATVKFTYQGEEKQVDISKIKIVARDGQYIDFKYDEGGGAYGYGWVSEKDAPKELLQMLEKQGG"
property = "limit of detection (LOD)"
units_symbol = "nM"
experimental_result = 200

[[record]]
binder = "4xSP25k thin film (4x rcSso7d.SA-PNIPAM conjugate, 25 kDa PNIPAM) (designed binder, maleimide end-functionalized PNIPAM (25 kDa) on the N-terminal Cys; film lightly crosslinked with glutaraldehyde, Four rcSso7d.SA repeats joined by (G4S)2 linkers in one chain) MGSSHHHHHHSSGLVPRGSHMCATVKFTYQGEEKQVDISKIKIVARDGQYIDFKYDEGGGAYGYGWVSEKDAPKELLQMLEKQGGGGSGGGGSMATVKFTYQGEEKQVDISKIKIVARDGQYIDFKYDEGGGAYGYGWVSEKDAPKELLQMLEKQGGGGSGGGGSMATVKFTYQGEEKQVDISKIKIVARDGQYIDFKYDEGGGAYGYGWVSEKDAPKELLQMLEKQGGGGSGGGGSMATVKFTYQGEEKQVDISKIKIVARDGQYIDFKYDESGGAYGYGWVSEKDAPKELLQMLEKQ"
property = "limit of detection (LOD)"
units_symbol = "nM"
experimental_result = 140

[[record]]
binder = "3xSP25k thin film (3x rcSso7d.SA-PNIPAM conjugate, PNIPAM Mn 24.9 kDa) (designed binder, maleimide end-functionalized PNIPAM (Mn 24.9 kDa) on the N-terminal Cys; film lightly crosslinked with glutaraldehyde, Three rcSso7d.SA repeats joined by (G4S)2 linkers in one chain; also called conjugate of the trimer) MGSSHHHHHHSSGLVPRGSHMCATVKFTYQGEEKQVDISKIKIVARDGQYIDFKYDEGGGAYGYGWVSEKDAPKELLQMLEKQGGGGSGGGGSMATVKFTYQGEEKQVDISKIKIVARDGQYIDFKYDEGGGAYGYGWVSEKDAPKELLQMLEKQGGGGSGGGGSMATVKFTYQGEEKQVDISKIKIVARDGQYIDFKYDEGGGAYGYGWVSEKDAPKELLQMLEKQGG"
property = "limit of detection (LOD)"
units_symbol = "nM"
experimental_result = 110


Give the measured limit of detection (LOD) for rcSso7d.SA monolayer (designed binder, EDC/NHS-activated protein coupled to an amine-functionalized silicon wafer, also called monomeric rcSso7d.SA; surface-immobilized rcSso7d.SA) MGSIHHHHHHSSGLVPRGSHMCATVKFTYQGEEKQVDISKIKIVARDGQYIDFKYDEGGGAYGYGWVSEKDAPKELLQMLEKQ
360
